| chemical-string | melting point / °C |
| --- | --- |
| N#Cc1cc(-c2ccc(Cl)c(F)c2)c2c(c1)cc1n2CCNC1=O | 309 |
| N#Cc1cc(-c2ccc(Cl)c(Cl)c2)c2c(c1)cc1n2CCCNC1=O | 217.5 |
| Cc1c2n(c3c(-c4cncnc4)cc(C#N)cc13)CCCNC2=O | 304 |
| N#Cc1cc(-c2ccc(F)cc2)c2c(c1)cc1n2CCCNC1=O | 230 |
| Cc1c2n(c3c(-c4ccc(Cl)nc4)cc(Cl)cc13)CCNC2=O | 276 |

---

We begin with a simple list: items and their reported melting point.

| chemical-string | melting point (°C) |
| --- | --- |
| Cc1c2n(c3c(-c4ccc(Cl)cc4Cl)cc(C#N)cc13)CCNC2=O | 274 |
| Cc1c2n(c3c(-c4nccs4)cc(F)cc13)CCNC2=O | 268 |
| Cc1c2n(c3c(-c4ccc(Cl)c(F)c4)cc(C#N)cc13)CCNC2=O | 260 |
| Cc1c2n(c3c(-c4ccnc(Cl)c4)cc(C#N)cc13)CCNC2=O | 281 |
| N#Cc1cc(-c2ccnc(Cl)c2)c2c(c1)cc1n2CCNC1=O | 286 |
| N#Cc1cc(-c2ccccc2)c2c(c1)cc1n2CCNC1=O | 265.5 |
| Cc1ccc(-c2cc(C#N)cc3cc4n(c23)CCCNC4=O)cc1 | 240.5 |
| O=C1NCCCn2c1cc1cc(F)cc(-c3ccccc3)c12 | 277 |
| Cc1c2n(c3c(-c4ccc(N(C)C)cc4)cc(Cl)cc13)CCNC2=O | 227 |
| CC(C)(C)c1ccc(-c2cc(C#N)cc3cc4n(c23)CCCNC4=O)cc1 | 215 |
| N#Cc1cc(-c2ccc(CO)cc2)c2c(c1)cc1n2CCCNC1=O | 256.5 |
| C[C@@H]1CNC(=O)c2cc3cc(F)cc(-c4ccc(F)cc4)c3n21 | 276 |
| Cc1c2n(c3c(-c4ccc(Cl)s4)cc(F)cc13)CCNC2=O | 185 |
| O=C1NCCCn2c1cc1cc(Cl)cc(-c3ccc(Cl)cc3)c12 | 237 |
| O=C1NCCn2c1c(C(F)(F)F)c1cc(F)cc(-c3ccc(F)cc3)c12 | 193 |
| Cc1c2n(c3c(-c4ccc(Cl)cc4F)cc(Cl)cc13)CCNC2=O | 251.5 |
| O=C1NCCn2c1cc1cc(Cl)cc(-c3ccc(F)c(F)c3)c12 | 277.5 |
| COc1ccc(-c2cc(C)cc3cc4n(c23)CCCNC4=O)cc1 | 208 |
| N#Cc1cc(-c2cc(Cl)cc(Cl)c2)c2c(c1)cc1n2CCCNC1=O | 244 |

The reported numbers originate from patent US9284321B2.
